Cited source: patent US20240002497A1

binders and their reported pEC50
# Target entity: T1, huNav1.7α on HEK cells (without β subunits) (human, UniProt Q15858 1-1988)
# T1 construct: also called HEKa huNav1.7α
# Method summary: binding FACS, HEK cells (HEKa)
For clarity, pEC50 is expressed as the negative log10 of concentration in mol/L.

// query Can you share its pEC50? I mean this binder: F010301637 (VHH, also called F0103275B05(L11V, T83R, V89L)) VHH: EVQLVESGGGVVQPGGSLRLSCAASGSIFNINSMAWYRRAPGKQRELVASSTNGGSTNYADSVKGRFTISRDNAKRVYLQMNSLRPEDTALYYCNALLQPSIYDISRTYWGQGTLVTVSS
// result 7.89

// query Can you share its pEC50? I mean this binder: F010301653 (VHH, also called F0103275B05(L11V, S33R, S50Y, S56D, T83R, V89L, N93R)) VHH: EVQLVESGGGVVQPGGSLRLSCAASGSIFNINRMAWYRRAPGKQRELVAYSTNGGDTNYADSVKGRFTISRDNAKRVYLQMNSLRPEDTALYYCRALLQPSIYDISRTYWGQGTLVTVSS
// result 7.82

// query Can you share its pEC50? I mean this binder: F010301652 (VHH, also called F0103275B05(L11V, S33R, S50Y, S56D, R76N, T83R, V89L, N93R)) VHH: EVQLVESGGGVVQPGGSLRLSCAASGSIFNINRMAWYRRAPGKQRELVAYSTNGGDTNYADSVKGRFTISRDNAKNVYLQMNSLRPEDTALYYCRALLQPSIYDISRTYWGQGTLVTVSS
// result 7.62

// query Can you share its pEC50? I mean this binder: F010301654 (VHH, also called F0103275B05(L11V, S33R, R39Q, S50Y, S56D, T83R, V89L, N93R)) VHH: EVQLVESGGGVVQPGGSLRLSCAASGSIFNINRMAWYRQAPGKQRELVAYSTNGGDTNYADSVKGRFTISRDNAKRVYLQMNSLRPEDTALYYCRALLQPSIYDISRTYWGQGTLVTVSS
// result 7.74
